The measured values listed here are drawn from ChEMBL document CHEMBL5104104.

Molecular target: Voltage-dependent N-type calcium channel subunit alpha-1B (Homo sapiens, UniProt Q00975)
Sequence (Q00975 whole entry): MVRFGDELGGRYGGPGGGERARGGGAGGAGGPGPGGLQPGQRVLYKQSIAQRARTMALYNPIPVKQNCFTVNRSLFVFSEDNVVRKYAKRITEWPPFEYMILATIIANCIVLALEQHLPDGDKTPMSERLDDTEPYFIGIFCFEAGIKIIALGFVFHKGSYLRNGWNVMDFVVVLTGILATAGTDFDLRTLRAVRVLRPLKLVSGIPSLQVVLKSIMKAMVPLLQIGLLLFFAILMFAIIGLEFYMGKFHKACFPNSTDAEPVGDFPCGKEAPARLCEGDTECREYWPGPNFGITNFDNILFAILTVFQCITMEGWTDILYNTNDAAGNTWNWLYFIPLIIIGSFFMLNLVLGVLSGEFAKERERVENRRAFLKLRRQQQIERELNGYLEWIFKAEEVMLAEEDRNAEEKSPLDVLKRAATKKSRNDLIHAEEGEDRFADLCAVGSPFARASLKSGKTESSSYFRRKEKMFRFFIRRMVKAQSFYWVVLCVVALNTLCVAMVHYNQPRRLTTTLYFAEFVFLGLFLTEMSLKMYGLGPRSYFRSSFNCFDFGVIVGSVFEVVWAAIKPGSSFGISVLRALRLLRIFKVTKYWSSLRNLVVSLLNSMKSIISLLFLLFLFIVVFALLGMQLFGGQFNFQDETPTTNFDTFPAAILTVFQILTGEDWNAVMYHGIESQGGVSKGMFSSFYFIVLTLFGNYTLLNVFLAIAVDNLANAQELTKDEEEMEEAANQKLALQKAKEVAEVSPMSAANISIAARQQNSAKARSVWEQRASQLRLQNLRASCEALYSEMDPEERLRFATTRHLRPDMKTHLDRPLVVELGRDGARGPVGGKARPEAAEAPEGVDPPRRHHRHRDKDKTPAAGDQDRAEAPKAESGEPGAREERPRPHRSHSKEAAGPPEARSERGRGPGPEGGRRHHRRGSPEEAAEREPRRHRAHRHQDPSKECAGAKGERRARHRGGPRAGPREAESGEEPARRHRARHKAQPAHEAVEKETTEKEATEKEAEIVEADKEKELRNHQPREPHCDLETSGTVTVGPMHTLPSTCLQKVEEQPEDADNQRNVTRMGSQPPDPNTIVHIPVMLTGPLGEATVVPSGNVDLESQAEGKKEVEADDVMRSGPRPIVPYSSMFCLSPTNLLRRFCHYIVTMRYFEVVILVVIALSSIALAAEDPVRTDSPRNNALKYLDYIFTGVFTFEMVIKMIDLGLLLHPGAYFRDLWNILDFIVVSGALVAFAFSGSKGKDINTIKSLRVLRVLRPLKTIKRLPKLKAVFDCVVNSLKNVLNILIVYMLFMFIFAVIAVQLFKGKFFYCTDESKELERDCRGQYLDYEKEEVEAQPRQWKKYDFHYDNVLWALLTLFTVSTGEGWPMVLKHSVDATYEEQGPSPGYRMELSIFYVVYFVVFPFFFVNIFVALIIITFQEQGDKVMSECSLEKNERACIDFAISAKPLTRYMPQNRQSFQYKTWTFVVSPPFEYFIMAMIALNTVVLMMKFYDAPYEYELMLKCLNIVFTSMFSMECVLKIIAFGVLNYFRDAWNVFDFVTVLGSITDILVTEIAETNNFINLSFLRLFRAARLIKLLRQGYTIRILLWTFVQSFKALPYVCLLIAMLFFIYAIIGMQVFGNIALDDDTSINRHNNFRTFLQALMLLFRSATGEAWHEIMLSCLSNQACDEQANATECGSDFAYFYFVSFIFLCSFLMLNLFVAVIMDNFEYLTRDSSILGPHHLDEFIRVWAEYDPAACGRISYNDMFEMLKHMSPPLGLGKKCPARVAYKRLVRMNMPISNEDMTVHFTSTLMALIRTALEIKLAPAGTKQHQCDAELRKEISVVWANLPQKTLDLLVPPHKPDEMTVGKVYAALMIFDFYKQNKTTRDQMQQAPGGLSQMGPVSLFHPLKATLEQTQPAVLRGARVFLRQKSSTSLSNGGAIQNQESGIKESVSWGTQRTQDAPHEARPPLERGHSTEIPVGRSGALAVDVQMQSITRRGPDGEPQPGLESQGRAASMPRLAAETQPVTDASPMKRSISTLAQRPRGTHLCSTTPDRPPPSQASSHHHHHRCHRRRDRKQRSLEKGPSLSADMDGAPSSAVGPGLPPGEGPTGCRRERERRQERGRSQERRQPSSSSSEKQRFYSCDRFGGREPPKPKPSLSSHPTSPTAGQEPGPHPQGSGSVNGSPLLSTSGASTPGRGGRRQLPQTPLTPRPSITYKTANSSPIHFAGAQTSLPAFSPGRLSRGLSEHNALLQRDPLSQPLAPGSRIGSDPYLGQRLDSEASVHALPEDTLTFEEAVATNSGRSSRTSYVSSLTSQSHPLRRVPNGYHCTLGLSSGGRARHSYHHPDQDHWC
Assay: Inhibition of endogenous human CaV2.2 in human SH-SY5Y cells in presence of nifedipine by Calcium 4 dye based calcium influx fluorescence-imaging assay
// reported pIC50 per item
Scale: pIC50 equals -log10([C]), with [C] in mol/L.

Inquiry: What does the data say about its pIC50? Entry: CNCCCC12CCC(c3ccccc31)c1ccccc12
Reply text: 5.00

Inquiry: What do you have for CC(CN1c2ccccc2Sc2ccccc21)N(C)C (stereo not drawn) ?
Reply text: 4.74

Inquiry: What do you have for CN(C)CCCN1c2ccccc2CCc2ccccc21 ?
Reply text: 4.66

---

Biological target: Voltage-dependent N-type calcium channel subunit alpha-1B (Homo sapiens)
Experiment: Inhibition of endogenous human CaV2.2 in human SH-SY5Y cells in presence of nifedipine by Calcium 4 dye based calcium influx fluorescence-imaging assay
Reported metric: pIC50
Scale: pIC50 equals -log10([C]), with [C] in mol/L.

Worked cases, answers included:
CN(C)CCCN1c2ccccc2CCc2ccc(Cl)cc21 = 5.05
CC(CN(C)C)CN1c2ccccc2CCc2ccccc21 (stereo not given) = 4.96
OCCN1CCN(CCCN2c3ccccc3C=Cc3ccccc32)CC1 = 4.62
CNCCC=C1c2ccccc2CCc2ccccc21 = 5.00
CN(C)CC/C=C1\c2ccccc2COc2ccccc21 [E-DOXEPIN] = 4.74

Inquiry: What does the data say about its pIC50? Entry: CN(C)CCC=C1c2ccccc2CCc2ccccc21
Reply text: 4.92

Inquiry: What do you have for Clc1ccc2c(c1)C(N1CCNCC1)=Nc1ccccc1O2 ?
Reply text: 4.57

Inquiry: What do you have for CNCCCC1c2ccccc2C=Cc2ccccc21 ?
Reply text: 4.85

Inquiry: What do you have for CNCCCN1c2ccccc2CCc2ccccc21 ?
Reply text: 4.96

Inquiry: What do you have for CN(C)CCC=C1c2ccccc2C=Cc2ccccc21 ?
Reply text: 5.00
